tested system: CYP2C8 (Homo sapiens, UniProt P10632)
Sequence (P10632 whole entry): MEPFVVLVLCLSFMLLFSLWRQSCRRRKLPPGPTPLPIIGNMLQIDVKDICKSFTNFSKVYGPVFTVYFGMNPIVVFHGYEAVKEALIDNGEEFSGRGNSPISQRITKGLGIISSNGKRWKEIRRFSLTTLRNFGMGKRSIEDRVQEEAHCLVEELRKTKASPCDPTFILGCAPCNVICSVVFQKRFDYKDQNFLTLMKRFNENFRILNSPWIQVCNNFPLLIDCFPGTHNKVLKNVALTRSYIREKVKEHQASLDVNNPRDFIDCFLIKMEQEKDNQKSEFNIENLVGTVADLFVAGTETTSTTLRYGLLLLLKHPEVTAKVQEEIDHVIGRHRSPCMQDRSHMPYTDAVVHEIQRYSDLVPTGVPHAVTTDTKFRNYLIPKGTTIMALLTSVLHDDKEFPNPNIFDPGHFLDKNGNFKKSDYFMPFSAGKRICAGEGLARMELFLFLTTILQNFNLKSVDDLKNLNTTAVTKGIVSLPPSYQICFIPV
experiment description: stability with recombinant CYP2C8
Format: in vitro ADME
study conditions: recombinant CYP2C8, intrinsic clearance, read-out: Recombinant CYP CLINT
readout kind: microsomal CLint at 1 μM (µL/min/mg)
Write it as a number; the unit µL/min/mg goes unstated.

Item CCC(=O)N(C)c1ccc(Cl)c(Cl)c1 was tested on CYP2C8 (Homo sapiens, UniProt P10632); the reported microsomal CLint at 1 μM is 0.219

###

tested system: UniProt:P08684
Sequence (P08684 whole entry): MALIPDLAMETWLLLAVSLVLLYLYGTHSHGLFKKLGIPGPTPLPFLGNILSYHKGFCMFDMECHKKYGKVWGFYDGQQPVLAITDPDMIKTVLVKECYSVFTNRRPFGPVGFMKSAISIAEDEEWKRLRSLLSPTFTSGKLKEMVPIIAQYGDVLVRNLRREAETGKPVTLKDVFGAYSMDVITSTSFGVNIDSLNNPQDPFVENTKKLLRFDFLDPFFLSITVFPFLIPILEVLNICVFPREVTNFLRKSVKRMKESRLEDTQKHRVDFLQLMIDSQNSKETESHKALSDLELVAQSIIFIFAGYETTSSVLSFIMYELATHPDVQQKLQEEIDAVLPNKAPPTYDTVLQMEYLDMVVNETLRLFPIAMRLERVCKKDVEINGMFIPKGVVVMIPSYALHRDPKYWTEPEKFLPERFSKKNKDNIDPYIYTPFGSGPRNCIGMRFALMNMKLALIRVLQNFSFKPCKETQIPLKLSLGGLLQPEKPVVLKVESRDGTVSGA
experiment description: stability with recombinant CYP3A4
Assay type: in vitro ADME
study conditions: recombinant CYP3A4, intrinsic clearance, read-out: Recombinant CYP CLINT
readout kind: microsomal CLint at 1 μM
# answer = value followed by unit

Looking up CCC(=O)N(C)c1ccc(Cl)c(Cl)c1 [ELP-004] , I see its microsomal CLint at 1 μM listed as 0.193 µL/min/mg

Values compiled from patent US20240277631A1.
